Value source: patent EP4206196A1

Target: TYK2 (JH2domain-pseudokinase) (Homo sapiens)
Construct: TYK2 (JH2domain-pseudokinase)-tagged T7 phage strains were prepared in an E. coli host derived from the BL21 strain
Sequence (P29597 589-875 limits assumed): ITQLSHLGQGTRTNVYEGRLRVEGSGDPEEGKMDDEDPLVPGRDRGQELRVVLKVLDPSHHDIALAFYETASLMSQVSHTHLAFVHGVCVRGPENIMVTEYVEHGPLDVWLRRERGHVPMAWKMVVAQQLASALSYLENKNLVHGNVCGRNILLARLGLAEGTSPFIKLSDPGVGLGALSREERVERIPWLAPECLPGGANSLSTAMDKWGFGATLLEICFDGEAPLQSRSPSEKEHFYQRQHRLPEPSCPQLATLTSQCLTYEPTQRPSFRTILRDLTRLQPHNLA
Test: TYK2 JH2 domain binding assay (KINOMEscan)
quantity kind: Kd

> print(dat)
                                    molecule   test.value
 1  Cc1cc(Nc2cc(Nc3ncc(-c4cnn(C)c4C)cc3N(C)S(C)(=O)=O)ncn2)ncc1F [Example 103]     < 0.2 nM
 2  Cc1ccc(Nc2cc(Nc3ncc(-c4cnn(C)c4C)cc3N(C)S(C)(=O)=O)ncn2)nn1 [Example 158]     < 0.2 nM
 3  Cc1cc(Nc2cc(Nc3ccccc3S(=O)(=O)N3CCCCC3)ncn2)nc(C)n1 [Example 73]      > 10 nM
 4  C=Cc1ccc(Nc2cc(Nc3cc(C)nc(C)n3)ncn2)c(N(C)S(C)(=O)=O)c1 [Example 108]     < 0.2 nM
 5  Cc1cc(Nc2cc(Nc3ccc(C4CCCCO4)cc3N(C)S(C)(=O)=O)ncn2)nc(C)n1 (centres unmarked) [Example 107]     < 0.2 nM
 6  Cc1cc(Nc2cc(Nc3cccc(F)c3N(C)S(C)(=O)=O)ncn2)nc(C)n1 [Example 76]     < 0.2 nM
 7  COc1cc(-c2cnn(C)c2C)cnc1Nc1cc(Nc2cc(C)nc(C)n2)ncn1 [Example 146]     < 0.2 nM
 8  Cc1c(-c2cnc(Nc3cc(Nc4ccc(F)cn4)ncn3)c(N(C)S(C)(=O)=O)c2)cnn1C [Example 138]     < 0.2 nM
 9  Cc1cc(Nc2cc(Nc3nc(C)c(-c4cnn(C)c4)cc3N(C)S(C)(=O)=O)ncn2)ncn1 [Example 162]     < 0.2 nM
10  COc1c(Nc2cc(Nc3cc(C)nc(C)n3)ncn2)cccc1-c1ncn(C)n1 [Example 4]  0.2 to 1 nM
11  COc1c(Nc2cc(Nc3cc(C)nc(C)n3)ncn2)ccc(C)c1-c1ncn(C)n1 [Example 63]  0.2 to 1 nM
12  Cc1cc(Nc2cc(Nc3ccc(C4=CCCOC4)cc3N(C)S(C)(=O)=O)ncn2)nc(C)n1 [Example 94]     < 0.2 nM
13  Cc1cc(Nc2cc(Nc3ccc(C4CCNC4)cc3N(C)S(C)(=O)=O)ncn2)nc(C)n1 (centres unmarked) [Example 110]   1 to 10 nM
14  Cc1cc(Nc2cc(Nc3ncc(-c4cnn(C)c4)cc3N(C)S(C)(=O)=O)ncn2)nc(C)n1 [Example 126]     < 0.2 nM
15  COc1c(Nc2cc(Nc3ccc(F)cn3)ncn2)cccc1-c1ncn(C)n1 [Example 65]  0.2 to 1 nM
16  Cc1cc(Nc2cc(Nc3ccc(C4CCCO4)cc3N(C)S(C)(=O)=O)ncn2)nc(C)n1 (centres unmarked) [Example 114]     < 0.2 nM
17  CN=S(C)(=O)c1c(C)cccc1Nc1cc(Nc2cc(C)nc(C)n2)ncn1 (centres unmarked) [Example 116]  0.2 to 1 nM
